Taken from patent US11878975B2.

target_or_test_system: human TLR7 (Homo sapiens)
Sequence (Q9NYK1 27-1049): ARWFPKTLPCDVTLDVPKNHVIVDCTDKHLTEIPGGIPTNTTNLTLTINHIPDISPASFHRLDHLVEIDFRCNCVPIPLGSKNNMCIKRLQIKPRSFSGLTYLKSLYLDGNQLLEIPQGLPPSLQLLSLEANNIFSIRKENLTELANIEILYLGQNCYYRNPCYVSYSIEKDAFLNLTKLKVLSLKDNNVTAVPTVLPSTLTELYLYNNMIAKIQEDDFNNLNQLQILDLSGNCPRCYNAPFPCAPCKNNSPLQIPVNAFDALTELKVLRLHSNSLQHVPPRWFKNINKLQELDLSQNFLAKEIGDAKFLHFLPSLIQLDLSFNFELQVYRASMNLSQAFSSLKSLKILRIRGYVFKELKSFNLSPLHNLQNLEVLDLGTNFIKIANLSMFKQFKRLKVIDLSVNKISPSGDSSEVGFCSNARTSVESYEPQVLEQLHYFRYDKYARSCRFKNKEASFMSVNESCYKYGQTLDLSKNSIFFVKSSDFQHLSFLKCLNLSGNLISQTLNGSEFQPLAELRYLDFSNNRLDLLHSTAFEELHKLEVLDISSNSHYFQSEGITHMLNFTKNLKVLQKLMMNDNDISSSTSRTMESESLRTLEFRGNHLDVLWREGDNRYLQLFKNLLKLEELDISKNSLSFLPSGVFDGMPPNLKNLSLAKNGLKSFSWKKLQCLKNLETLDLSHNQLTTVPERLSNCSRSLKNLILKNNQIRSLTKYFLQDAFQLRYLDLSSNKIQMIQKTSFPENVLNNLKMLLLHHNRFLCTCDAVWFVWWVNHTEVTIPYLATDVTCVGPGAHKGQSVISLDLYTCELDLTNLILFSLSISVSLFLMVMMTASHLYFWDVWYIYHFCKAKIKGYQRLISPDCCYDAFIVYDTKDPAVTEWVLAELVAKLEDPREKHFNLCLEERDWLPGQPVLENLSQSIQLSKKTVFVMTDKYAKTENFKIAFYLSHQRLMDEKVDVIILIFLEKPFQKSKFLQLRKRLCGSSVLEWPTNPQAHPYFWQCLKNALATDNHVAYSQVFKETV
assay_info: TLR7 inhibition reporter assay (HEK-Blue cells, SEAP reporter, gardiquimod stimulation)
run_conditions: HEK-Blue cells overexpressing human TLR7, SEAP reporter, gardiquimod 7.5 μM
Source text: TLR7/8/9 Inhibition Reporter Assays HEK-Blue™-cells (Invivogen) overexpressing human TLR7, TLR8 or TLR9 receptors were used for screening inhibitors of these receptors using an inducible SEAP (secreted embryonic alkaline phosphatase) reporter gene under the control of the IFN-β minimal promoter fused to five NF-κB and AP-1-binding sites. […]
pIC50: −log10 of the molar value.
Classification by pIC50 follows these ranges: A: < 8; B: ≥ 8 and < 9; C: ≥ 9

1) Cc1cc(-c2[nH]c3ccc(C4CNCCO4)cc3c2C(C)C)cn2ncnc12 (stereo not drawn) [Example 281]    C
2) COc1cc(-c2[nH]c3ccc(C4CCCN(CC(N)=O)C4)cc3c2C(C)C)cn2ncnc12 (stereo not drawn) [Example 234]    B
3) CCc1c(-c2ccnc(C)c2)[nH]c2ccc(CNC(=O)C3CCN(C)CC3)cc12 [Example 446]    A
4) Cc1c(-c2[nH]c3ccc(C4CN(CCS(C)(=O)=O)CCO4)cc3c2C(C)C)cn2ncnc2c1C (stereo not drawn) [Example 346]    A
5) Cc1c(-c2[nH]c3ccc(C4CCC(N5CCOCC5)CC4)cc3c2C(C)C)cn2ncnc2c1C (single isomer, unassigned) [Example 93]    B
6) Cc1cc(-c2[nH]c3ccc(C4CCC(N)CC4)cc3c2C(C)C)cn2ncnc12 (single isomer, unassigned) [Example 3]    C
7) COc1cc(-c2[nH]c3ccc(C4CCC(NC(=O)CN(C)C5CC5)CC4)cc3c2C(C)C)cn2ncnc12 (stereo not drawn) [Example 143]    B
8) Cc1cc(-c2[nH]c3ccc(C4CN(CCS(C)(=O)=O)C4)cc3c2C(C)C)cn2ncnc12 [Example 264]    B
9) COc1cc(-c2[nH]c3ccc(C4CCCN(C5COC5)C4)cc3c2C(C)C)cn2ncnc12 (stereo not drawn) [Example 240]    B
10) Cc1c(-c2[nH]c3ccc(C4CC(NCCS(C)(=O)=O)C4)cc3c2C(C)C)cn(C)c(=O)c1C (stereo not drawn) [Example 495]    A
11) Cc1cc(-c2[nH]c3ccc([C@@H]4C[C@H]4C(=O)NC4CCN(C(C)C)CC4)cc3c2C(C)C)ccn1 [Example 458]    A
